The values you see were collected from ChEMBL document CHEMBL1201862.

# Test system: HOP-62
# PROCEDURE DETAILS: NCI tumour cell line growth inhibition, 48 h
Activity calls are given as the source filed them. Cut-off read from the data, not from the text of the source: active = GI50 up to about 1.1 µM and inactive = higher.
RECORDED ENDPOINT: GI50

Take a look at these entries with their results.
O[C@@H]1C[C@@H]2N[C@@](O)(C[C@@H]2O)[C@H]1O    > 100 µM (inactive)
NC(=O)N/C=C1\C(=O)Oc2ccccc2C1=O    > 100 µM (inactive)
c1ccc2sc(SCCSc3nc4ccccc4s3)nc2c1    > 100 µM (inactive)

Form field GI50, entry N#C/C(=C\Nc1ccccn1)C(=O)C1CC1 : > 100 µM (inactive)

GI50 reported for this compound O=c1[nH]c(Br)nc2c(N3CCCCC3)c[nH]c12 : > 100 µM (inactive)

Query COC(=N)C12C(N)=NC(OC)(OC)C1(C#N)C21C(=O)N(c2ccccc2)N=C1C (stereo not given) yields GI50 of > 100 µM (inactive)

Recorded result, CCNc1ncnc2nn[nH]c12 , GI50: > 100 µM (inactive)

Data point: N#CC(C#N)=Cc1c(O)ccc2ccccc12 ; GI50 = 20.6 µM (inactive)

The value of GI50 measured for the compound O=C1C(Cl)=C(N2CCN(c3ccccn3)CC2)C(=O)c2ncccc21 turned out to be 11.9 µM (inactive)

Query O=C1C=CC2(C=C1)C[C@H](NC(=O)C(F)(F)F)C(=O)O2 yields GI50 of > 100 µM (inactive)

Kindly note the recorded GI50 for COc1cc2c(cc1O)C(=O)O[C@@H]1CC=C3CCN(C)[C@H]3[C@H]21 , which is > 25 µM (inactive)

Record O=C(/C=C/c1ccc[nH]1)c1ccccc1 . Reported GI50: > 100 µM (inactive)

Short answer for CC1=C(O)C(=O)C2C(=O)C1C(C)C2c1ccc(C)cc1 (stereo not given) : GI50 was > 100 µM (inactive)

get_value(item= Cc1ccc([Se][Se]c2ccc(C)cc2)cc1 , readout=GI50) returns > 100 µM (inactive)

GI50 reading for CC1(C)[C@@H]2CC[C@@]1(C)CN(CCC[N+](C)(C)C)C2 : > 100 µM (inactive)
